Target: EPHB1 (UniProt P54762)
Sequence (P54762 whole entry, looked up): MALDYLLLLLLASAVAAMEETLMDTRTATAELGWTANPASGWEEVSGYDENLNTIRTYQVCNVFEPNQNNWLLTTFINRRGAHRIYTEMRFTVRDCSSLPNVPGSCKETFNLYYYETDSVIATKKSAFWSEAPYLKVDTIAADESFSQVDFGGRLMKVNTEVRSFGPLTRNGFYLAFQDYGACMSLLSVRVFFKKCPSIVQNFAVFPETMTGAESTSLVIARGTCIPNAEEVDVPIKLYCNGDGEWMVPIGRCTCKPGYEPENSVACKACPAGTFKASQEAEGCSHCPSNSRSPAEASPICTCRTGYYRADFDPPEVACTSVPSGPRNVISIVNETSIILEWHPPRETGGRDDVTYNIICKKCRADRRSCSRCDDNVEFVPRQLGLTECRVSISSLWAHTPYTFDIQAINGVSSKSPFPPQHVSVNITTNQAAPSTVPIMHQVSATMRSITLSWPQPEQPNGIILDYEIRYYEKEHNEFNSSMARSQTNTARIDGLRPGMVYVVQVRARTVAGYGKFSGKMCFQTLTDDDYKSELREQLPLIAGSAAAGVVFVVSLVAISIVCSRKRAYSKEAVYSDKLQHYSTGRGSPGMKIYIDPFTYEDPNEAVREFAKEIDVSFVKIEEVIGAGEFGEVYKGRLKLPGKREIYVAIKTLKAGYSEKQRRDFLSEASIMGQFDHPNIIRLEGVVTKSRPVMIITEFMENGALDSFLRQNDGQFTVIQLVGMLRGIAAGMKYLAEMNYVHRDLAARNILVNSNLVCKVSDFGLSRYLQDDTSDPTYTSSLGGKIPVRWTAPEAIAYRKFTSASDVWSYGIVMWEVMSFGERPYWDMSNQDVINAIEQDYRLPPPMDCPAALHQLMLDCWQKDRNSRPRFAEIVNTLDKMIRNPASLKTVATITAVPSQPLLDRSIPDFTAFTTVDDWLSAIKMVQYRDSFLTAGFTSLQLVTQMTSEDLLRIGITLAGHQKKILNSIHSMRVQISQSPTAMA
Assay: phosphorylation enrichment, bacterial display (enrichment ratio); higher = better substrate or ligand; peptides without Tyr show the background;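 further: 11-residue human phosphosite peptides and single-mutation variants displayed on the E. coli surface, counted by deep sequencing, each peptide's frequency after selection divided by its frequency in the unselected input library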;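 further: frequency after pTyr selection over input frequency; kinase dosed for 20-30% of maximal phosphorylation in three min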
recordedMetric: phosphorylation enrichment

# phosphorylation enrichment of IATTIYSGDKI [UGGT2_Y823_A821T] = 0.576

# phosphorylation enrichment of FLGRNYLETLM [DUS3L_Y610_D609N_YF] = 0.515

# phosphorylation enrichment of RGDSAYHSQRH [ERBB3_Y1132] = 0.534

# phosphorylation enrichment of VKMLPYTEVTR [GDI1_Y93_L92P] = 0.437

# phosphorylation enrichment of SNYRAYATEPH [TNNI3_Y29] = 0.372

# phosphorylation enrichment of ETDPRYFDEEF [AKT1_Y437_T435P] = 0.625

# phosphorylation enrichment of IATAIYSGDKI [UGGT2_Y823] = 0.434

# phosphorylation enrichment of ERDYTYEELLN [EIF2S2_Y176] = 0.78

# phosphorylation enrichment of FEKFLYFLPAS [DYNC2H1_Y346_H341Y_YF] = 0.8

# phosphorylation enrichment of GNLLIYTELGK [HGD_Y166_F169L] = 3.98

# phosphorylation enrichment of CTTIHYNHMCN [TP53_Y234_Y236H] = 0.445

# phosphorylation enrichment of KGKLIYLLRDS [NXPE1_Y350_G353R] = 0.455

# phosphorylation enrichment of RSGIYYKPESL [L2HGDH_Y103_H98R] = 2.37

# phosphorylation enrichment of PCLLRYLQLDF [ASB10_Y457_R453C] = 0.833

The values you see were collected from the supplement of paper PMC10065799.
